Each recorded value in this set is attributed to PubChem BioAssay (NCI).

- System: IGROV1 ovarian
- ASSAY_REMARKS: NCI tumour cell line growth inhibition, 48 h; in the data active = GI50 below about 0.43 µM; inactive = the rest
Return exactly one item of y for active, n for inactive

What classification did C#Cc1ccc(NC(=O)c2ccc(/C=C/C(=O)c3nccn3C)cc2)cc1 end up with in this test?
y

What about this compound? COc1ccc(C(O)c2cc3c(N)c(C(=O)Nc4cccc(Br)c4)sc3nc2C)cc1 (stereo not drawn)
y

What about this compound? Cn1c(=O)c2[nH]c(COc3ccc(C(C)(C)C)cc3)nc2n(C)c1=O
n

====

Give TGI for every item shown.
- Tested on: MOLT-4 leukemia
- ASSAY_REMARKS: NCI tumour cell line growth inhibition, 48 h

Tell me the measured TGI of COc1ccc(C(=O)C=C2NCCN2)cc1 , please.
> 100 µM

What about this compound? COc1cc(CC2c3cc(OC)c(OC)cc3CCN2C)c(Oc2cc3c(cc2OC)-c2c(OC)c(OC)c(OC)c4c2C(C3)N(C)CC4)cc1OC (stereo unspecified)
> 42.5 µM

What about this compound? O=C1C2=C(c3ccccc31)C(c1ccccc1Cl)N1C(=O)CSC1=N2 (stereo unspecified)
> 100 µM

What about this compound? CC[C@@H]1OC2(C)CC(S(=O)(=O)c3ccccc3)CC1O2 (stereo partly specified)
> 100 µM

What about this compound? CCN(CC)CCCNC(=O)Cc1ccccc1Nc1c(Cl)cccc1Cl
28 µM

What about this compound? O=C(/C=C\c1ccnc2ccccc12)c1ccc([N+](=O)[O-])cc1
> 83 µM

What about this compound? C[Si](C)(C)/C=C/CN1C(=O)CCC1O (stereo unspecified)
> 100 µM

What about this compound? CC(C)[Si]1(C(C)C)OCC2OC(n3ccc(=O)[nH]c3=O)C(O)(CO)C2O[Si](C(C)C)(C(C)C)O1 (stereo unspecified)
69.1 µM

What about this compound? COc1ccc(NC(=O)C(=O)C2NC(=S)NC2=O)c(OC)c1 (stereo unspecified)
> 100 µM

What about this compound? CCOC(=O)C(C)(C)Oc1ccc2c(-c3ccc(Cl)cc3)cc(=O)oc2c1
> 100 µM

What about this compound? C=C1C(=O)OC2/C=C(\C)C(O)/C=C\C(C)(O)CC(OC(=O)/C(C)=C/C)C12 (stereo unspecified)
53.8 µM

What about this compound? C[C@@H]1C(O)CC[C@H](C)C12CC=CC2=O (stereo partly specified)
> 100 µM

What about this compound? C[C@@H]1CCC2[C@@H](C)C(=O)O[C@@H]3C4C[C@@H]1[C@@]23OO[C@@]4(C)O (stereo partly specified)
> 100 µM

What about this compound? CC1=C2C(c3ccccc3)(c3ccccc3)C3C=CC2(C=N3)N(C(=O)NC2CCCCC2)C1=O (stereo unspecified)
35.8 µM

What about this compound? Cn1ccnc1C(=O)/C=C/c1ccc(C(=O)Nc2nc3ccccc3[nH]2)cc1
> 25 µM

What about this compound? CC(C)(C)OC(=O)N1N=NC2C3CC(=O)C(O3)C21 (stereo unspecified)
> 100 µM

What about this compound? C#CCOC(=O)c1ccccc1OC(C)=O
> 100 µM

What about this compound? CC(=O)c1cccc(NC2C(N)C(NC(=O)N(C)C)(C(C)O)C(C)(O)C2(O)COC(=O)c2c(C)cccc2O)c1 (stereo unspecified)
0.835 µM

What about this compound? Cc1cccc2c1C(=O)C(C1OC(=O)c3ccccc31)C2 (stereo unspecified)
> 100 µM

What about this compound? Cc1cc(=Nc2ccc3c(c2)c(N)cc(C)[n+]3C)nc(N)n1C
> 100 µM

What about this compound? O=C(NCc1ccccc1)c1cnc(Cl)cn1
> 100 µM

What about this compound? N#Cc1c(-c2ccc(Cl)cc2)c(C#N)c(=O)n(NS(=O)(=O)c2ccccc2)c1-c1ccccc1
> 25 µM

What about this compound? Cn1cnc([N+](=O)[O-])c1Sc1ncnc2c1ncn2C1OC(CO)C(O)C1O (stereo unspecified)
64.5 µM

What about this compound? CC(=O)Nc1ccc(-c2nnc(SCC(=O)Nc3ccc(C)cc3)o2)cc1
> 100 µM

What about this compound? O=C(/C=C/c1ccc(O)c(O)c1)OCCOC(=O)/C=C/c1ccc(O)c(O)c1
44.9 µM

What about this compound? CC(=O)Oc1cccc2c1C(=O)c1c(OC(C)=O)cc(C)cc1C2=O
> 100 µM

What about this compound? FC(F)(F)c1ccc(-c2cnc(Br)nc2NC2CCCCCC2)cc1
> 100 µM

What about this compound? Fc1ccc(-c2ncn(C3CCNCC3)c2-c2ccnc(Oc3cccc(F)c3)n2)cc1
> 25 µM

What about this compound? CC1(C)CCc2c(c(N=Nc3ccccc3)c3ccccc3c2O)O1
> 100 µM

What about this compound? CCCCCCCCCN1CCC(=O)C(C(=O)OC)C1 (stereo unspecified)
54.6 µM

What about this compound? COc1ccc(NC2=NCCO2)c2ccccc12
> 10 µM

====

- System: UO-31 renal
- ASSAY_REMARKS: NCI tumour cell line growth inhibition, 48 h
Where a SMILES comes first, the peptide text is derived from it. The star is where a group is joined. Cbz = O=C(OCc1ccccc1)*
READOUT_LABEL: TGI

Tell me the measured TGI of CCc1cccc(C)c1NC(=O)NS(=O)(=O)c1ccc(C)cc1 , please.
> 100 µM

What about this molecule? COc1cc2c(cc1OC)CCN=C2
> 100 µM

What about this molecule? CCOC(=O)C(C)(C)Oc1ccc2c(-c3ccc(Cl)cc3)cc(=O)oc2c1
> 100 µM

What about this molecule? COc1ccc(C)cc1NC(=S)N/N=C/c1ccc(SC)cc1
> 100 µM

What about this molecule? CCOC(=O)C(C)NC(=O)C(C)NC(=O)C(C)NC(=O)C(C)NC(=O)C(C)NC(=O)C(C)NC(=O)C(C)NC(=O)OCc1ccccc1 (stereo not drawn) (Cbz-AAAAAAA-OEt; configuration not given here)
> 100 µM

What about this molecule? Nc1cccc(OCc2nc(N)nc(N)c2-c2ccc(Cl)cc2)c1
> 100 µM

What about this molecule? Nc1ncc(Cc2nc3ccccc3s2)s1
> 100 µM

What about this molecule? Cc1n[nH]c(=O)n1N=C(c1ccccc1)c1ccccc1
> 100 µM

What about this molecule? CC(C)[Si]1(C(C)C)OCC2OC(n3ccc(=O)[nH]c3=O)C(O)(CO)C2O[Si](C(C)C)(C(C)C)O1 (stereo not drawn)
22.2 µM

What about this molecule? COc1ccc(-c2ccc(-c3ccc(C(=N)N)cn3)s2)cc1Cl
3.09 µM

What about this molecule? C[C@@H]1OC(=O)C[C@H]2CC(=O)N(CCc3cn(S(=O)(=O)C(F)(F)F)c4ccccc34)C[C@@H]21
> 100 µM

What about this molecule? CCOC(=O)C(C[Si](C)(C)C)P(=O)(OCC)OCC (stereo not drawn)
> 100 µM

What about this molecule? CC(C)[Si](OC1=CCCCCC12C(=O)N(C)c1ccccc12)(C(C)C)C(C)C (stereo not drawn)
36.7 µM

What about this molecule? CC1(C)OCN(c2ccc(Cl)cc2)Cn2c1nc1ccccc12
97.1 µM

What about this molecule? FC(F)(F)c1ccc(-c2cnc(Br)nc2NC2CCCCCC2)cc1
> 100 µM

What about this molecule? NC(CCCCNc1ccn(C2OC(CO)C(O)C2O)c(=O)n1)C(=O)O (stereo not drawn)
> 100 µM

What about this molecule? Cc1nc(-c2nc([N+](=O)[O-])c([N+](=O)[O-])[nH]2)cs1
> 100 µM

What about this molecule? COc1ccc(C2S/C(=C\c3ccc(OC)cc3OC)C(=O)N2NC(=O)Cc2ccccc2)cc1 (stereo not drawn)
> 100 µM

What about this molecule? CCOC(=O)C12CC1(C(=O)OCC)C1CCC2C1 (stereo not drawn)
> 100 µM

What about this molecule? CC(Cc1ccc(O)c(O)c1)C(C)Cc1ccc(O)c(O)c1 (stereo not drawn)
23.1 µM

What about this molecule? COc1cc(C2C(C#N)=C(N)OC3=C2C(=O)c2ccccc2C3=O)cc(OC)c1OC (stereo not drawn)
21.3 µM

What about this molecule? C=C(C)C1/C=C(/C(C)C)CC[C@]2(C)O[C@@H]2CC[C@H](C)CC1=O (stereo partly drawn)
98.1 µM

What about this molecule? CCS/C(Nc1ccccc1)=C(\C#N)C(=O)Nc1ccc(OC)cc1
> 100 µM

====

Give TGI for every item shown.
- System: ACHN renal
- ASSAY_REMARKS: NCI tumour cell line growth inhibition, 48 h

Tell me the measured TGI of CCOC(=O)c1c(SCCO)n(-c2ccccc2)c(=S)n(-c2ccccc2)c1=O , please.
> 100 µM

What about this compound? COc1cc(C2C(C(=O)Nc3ccccc3)=C(C)NC(C)=C2C(=O)Nc2ccccc2)ccc1O
> 100 µM

What about this compound? CCOC(=O)C(C[Si](C)(C)C)P(=O)(OCC)OCC (configuration not stated)
> 100 µM

What about this compound? COc1ccc(NC(=O)C(=O)C2NC(=S)NC2=O)c(OC)c1 (configuration not stated)
> 100 µM

What about this compound? CCCCCCCSCC(O)COC(c1ccccc1)(c1ccccc1)c1ccccc1 (configuration not stated)
76.3 µM

What about this compound? COc1ccc(C(O)c2cc3c(N)c(C(=O)Nc4cccc(Br)c4)sc3nc2C)cc1 (configuration not stated)
> 46.2 µM

What about this compound? Oc1ccc2ccccc2c1N=Nc1ccccc1
> 100 µM

What about this compound? CC#CC(=O)N1CCC[C@H]1c1nc(-c2ccc(C(=O)Nc3ccccn3)cc2)c2c(N)nccn12
> 100 µM

What about this compound? COc1cc(Br)c(CC2=NCCc3cc(OC)c(OC)cc32)cc1OC
> 100 µM

What about this compound? C[N+]1(C)CN(c2ccccc2)C2(CCN(CCCC(=O)c3cccs3)CC2)C1=O
> 100 µM

What about this compound? Fc1ccc(C(OCCN2CCC3CCC(C2)N3Cc2cc3ccccc3[nH]2)c2ccc(F)cc2)cc1 (configuration not stated)
4.07 µM

What about this compound? O=c1[nH]c(-c2ccc(C(F)(F)F)cc2)nc2c1CSCC2
> 100 µM
